tested.system: Laminin 421/521
assay.overview: phage display, NGS count
I would appreciate it if you labelled entries condition met when Count is 30 or higher, otherwise condition not met.

| binder | label.value |
| --- | --- |
| CGETTAGKC | condition met |
| KQELSDNLASHR | condition met |
| QINWKQADKNAD | condition met |
| SWQMRSY | condition met |
| KISMNRLHANFT | condition met |
| STNVQRA | condition not met |
| CTGETLLTC | condition not met |
| GSTTHPHFGLPG | condition met |
| CSSQAKRSC | condition met |
